- PROTOCOL DESCRIPTION: self-splicing fitness, log relative to wild type (ln ratio); higher = more splicing; Tetrahymena group I intron in knt gene, E. coli kanamycin selection, DiMSum; sequences stand for … in CUCUCU…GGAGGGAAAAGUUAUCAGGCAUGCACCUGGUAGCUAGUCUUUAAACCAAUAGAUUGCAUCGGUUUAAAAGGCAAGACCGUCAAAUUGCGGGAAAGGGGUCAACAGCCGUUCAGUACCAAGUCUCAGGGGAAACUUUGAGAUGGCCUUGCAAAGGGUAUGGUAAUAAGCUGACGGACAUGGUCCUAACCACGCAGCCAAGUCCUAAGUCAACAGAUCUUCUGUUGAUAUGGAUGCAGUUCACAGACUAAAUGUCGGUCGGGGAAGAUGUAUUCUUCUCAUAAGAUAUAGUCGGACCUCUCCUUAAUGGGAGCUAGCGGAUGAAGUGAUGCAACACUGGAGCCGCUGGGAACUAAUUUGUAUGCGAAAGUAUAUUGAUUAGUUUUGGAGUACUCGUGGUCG;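 further: selection with 25 µg/mL kanamycin versus none on LB agar overnight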
- RUN CONDITIONS: 30 °C
If the reported self-splicing fitness (ln) equals or exceeds -3, assign MET. If not, assign NOT MET.

1) CCCGAGCAAUAUUACGACAC : NOT MET
2) CAGCAGCAAUAUUACGGGCU : NOT MET
3) UAUAAGCAAUAUUACGGGAA : MET
4) CAGCAGCAAUAUUACGCGAA : MET
5) GCGCAGCAAUAUUACGUAUA : MET
6) AAAUAGCAAUAUUACGACGC : MET
7) AGCCAGCAAUAUUACGGGCC : MET
8) GCUUAGCAAUAUUACGCGUU : MET
9) UGGGAGCAAUAUUACGCGCG : MET
10) UCCUAGCAAUAUUACGAGGC : MET
11) CGUUAGCAAUAUUACGACCG : MET
12) UUGUAGCAAUAUUACGUUUG : MET
13) GUUCAGCAAUAUUACGGACA : MET
14) GGUGAGCAAUAUUACGACAA : MET
15) ACUUAGCAAUAUUACGUGAU : MET
16) UUAAAGCAAUAUUACGGCGA : MET
17) UACGAGCAAUAUUACGAUUA : MET
18) CCCCAGCAAUAUUACGCGCA : NOT MET
19) AUGUAGCAAUAUUACGCGGU : MET
20) GCAUAGCAAUAUUACGCUCC : MET
21) CAUCAGCAAUAUUACGCCGA : MET
22) CGGUAGCAAUAUUACGAUGC : NOT MET
23) UAGAAGCAAUAUUACGUGAG : MET
24) CGCCAGCAAUAUUACGUUAU : NOT MET
25) AGAUAGCAAUAUUACGUCAC : MET
26) AGAGAGCAAUAUUACGCAAG : NOT MET
27) CCGCAGCAAUAUUACGCCAU : NOT MET
28) CCGGAGCAAUAUUACGCGGA : NOT MET
29) UCGGAGCAAUAUUACGCUAC : MET

----------
- PROTOCOL DESCRIPTION: self-splicing fitness, log relative to wild type (ln ratio); higher = more splicing; Tetrahymena group I intron in knt gene, E. coli kanamycin selection, DiMSum; sequences stand for … in CUCUCU…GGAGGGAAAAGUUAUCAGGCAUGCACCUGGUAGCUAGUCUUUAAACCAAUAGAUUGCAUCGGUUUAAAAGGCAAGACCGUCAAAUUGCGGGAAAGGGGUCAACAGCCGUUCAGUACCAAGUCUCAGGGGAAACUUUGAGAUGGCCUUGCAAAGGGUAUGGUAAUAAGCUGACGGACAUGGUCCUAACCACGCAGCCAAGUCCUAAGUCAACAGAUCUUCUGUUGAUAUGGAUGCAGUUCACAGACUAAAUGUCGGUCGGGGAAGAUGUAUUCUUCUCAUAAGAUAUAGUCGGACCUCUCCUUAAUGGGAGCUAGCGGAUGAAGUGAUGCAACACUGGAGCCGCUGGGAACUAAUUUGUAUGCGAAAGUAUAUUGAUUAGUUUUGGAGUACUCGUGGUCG
- RUN CONDITIONS: 30 °C
MEASUREMENT KIND: self-splicing fitness (ln)

1. UGGGAGCAAUAUUACGUGAG : -2.33
2. UCGCAGCAAUAUUACGAUGA : -0.691
3. CAGUAGCAAUAUUACGAGCA : -2.59
4. UAUCAGCAAUAUUACGACUA : 0.123
5. UCUGAGCAAUAUUACGGGGA : -2.89
6. UAGGAGCAAUAUUACGGUGU : -3.4
7. ACGCAGCAAUAUUACGCGCU : -2.24
8. UACAAGCAAUAUUACGUUAA : -3.35
9. AGACAGCAAUAUUACGGCGA : -0.438
10. AACCAGCAAUAUUACGGACC : 0.38
11. GCCCAGCAAUAUUACGGAGU : -2.57
12. CUAAAGCAAUAUUACGUAUA : -3.23
13. AAAUAGCAAUAUUACGCAAG : -2.14
14. GUGCAGCAAUAUUACGAACC : -1.94
15. CCUAAGCAAUAUUACGGUGC : -2.79
16. UCGCAGCAAUAUUACGAUGC : -3.73
17. CAUGAGCAAUAUUACGUGGC : -3.55
18. UCUGAGCAAUAUUACGCCGU : -3.13
19. GUAAAGCAAUAUUACGCAGG : -1.96
20. AAGGAGCAAUAUUACGCGUG : -4.9
21. CAUAAGCAAUAUUACGCAUU : -3.5
22. GUACAGCAAUAUUACGAGGA : -3.11
23. CGGUAGCAAUAUUACGCCGA : -0.997
24. CUUCAGCAAUAUUACGCGAU : -2.85
25. AUGGAGCAAUAUUACGUGGC : -2.39
26. CCUUAGCAAUAUUACGUCUU : -3.66
27. AAAAAGCAAUAUUACGACGA : 0.0233
28. GCCAAGCAAUAUUACGUAAU : -1.11
29. GAAUAGCAAUAUUACGGGUU : -2.48
30. UGACAGCAAUAUUACGUAUC : -2.91
31. ACGCAGCAAUAUUACGGCAG : -1.22
32. UUUGAGCAAUAUUACGCGGU : -2.67
33. GAGAAGCAAUAUUACGAUGU : -1.12
34. CUUGAGCAAUAUUACGAUGA : -1.49
35. UUUAAGCAAUAUUACGUGGA : -1.99
36. UCAGAGCAAUAUUACGGCGG : -1.41
37. GGGCAGCAAUAUUACGCCCA : -2.18
38. UCAAAGCAAUAUUACGGCAU : -2.94
39. GUGCAGCAAUAUUACGGCUG : -4.5
40. ACCAAGCAAUAUUACGGAGA : -3.16
41. GCCUAGCAAUAUUACGACUG : -3.25
42. AUUUAGCAAUAUUACGCGCU : -0.923
43. AGCUAGCAAUAUUACGUGGU : -2.52
44. GUCAAGCAAUAUUACGCUAG : -2.83
45. ACUCAGCAAUAUUACGACCU : -0.248
46. CUUAAGCAAUAUUACGGUUU : -4.49
